Assay: NCI Yeast Anticancer Drug Screen. Data for the sgs1 mgt1 strain (AID 161);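 further: 0% = growth of cultures given vehicle only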
Settings: S. cerevisiae sgs1 mgt1 strain, at 50.0 µM
About 79,000 compounds went through this panel and 15% of them were active in at least one assay; those are over-represented in the sample as a whole. The source made the active and inactive calls. No stated cut-off is given here; in the data, active means growth inhibition above about 70%; inactive means the rest.
Outcome field: choose from active, inactive

# input Look up the recorded call for `CCN(CC)CCN1c2ccccc2Sc2ccc3ccccc3c21` in this test.
# output inactive

# input Look up the recorded call for `CC(=O)CC(=O)Nc1ccc(C(=O)c2ccccc2)cc1` in this test.
# output inactive

# input Look up the recorded call for Cc1ccccc1N1CCOS(=O)OC(C)C1 (stereo not given) in this test.
# output inactive

# input Look up the recorded call for CCN(CC)CCCC(C)Nc1nncc2ccccc12 (stereo not given) in this test.
# output inactive

# input Look up the recorded call for `COc1cc(/C=C/c2ccnnc2)cc(OC)c1OC` in this test.
# output inactive

# input Look up the recorded call for `CC(=O)/C(=C\c1ccccc1F)C(=O)CCN(C)C` in this test.
# output inactive

# input Look up the recorded call for `CS/C(=C/c1ccc2ccccc2[n+]1C)N1CCN(C)CC1` in this test.
# output inactive

# input Look up the recorded call for `Cc1ccc(CCCC(=O)O)cc1C` in this test.
# output inactive

# input Look up the recorded call for `CCOC(=O)Oc1ccc(Cl)cc1Cl` in this test.
# output inactive

# input Look up the recorded call for `Cc1nn(C(=O)c2c(-c3ccccc3)noc2C)c(C)c1N=Nc1cc(C(F)(F)F)cc(C(F)(F)F)c1` in this test.
# output inactive

# input Look up the recorded call for `Oc1ccc(Cl)cc1/C=N\NC(=S)Nc1ccc2cn[nH]c2c1` in this test.
# output inactive

# input Look up the recorded call for `CCOC(=O)c1ccc(=O)n2c1[nH]c1ccccc12` in this test.
# output inactive

# input Look up the recorded call for `c1ccc(-c2ccc(-c3ccccc3)c3nonc23)cc1` in this test.
# output inactive

# input Look up the recorded call for `CCCCCCCCCCCOc1ccc(Cl)cc1Cl` in this test.
# output inactive

# input Look up the recorded call for COc1ccc(C2N(NC(=O)c3ccncc3)C(=O)CS2(=O)=O)cc1F (stereo not given) in this test.
# output inactive

# input Look up the recorded call for CCCCCCCCCC1(C(=O)OCC)OC1(C)C (stereo not given) in this test.
# output inactive

# input Look up the recorded call for CCCCN(CCCC)CC(O)c1cc(-c2ccc(Cl)cc2)nc2cc(OC)c(OC)cc12 (stereo not given) in this test.
# output active

# input Look up the recorded call for `COc1cc(NC(C)=O)c2nccnc2c1` in this test.
# output inactive

# input Look up the recorded call for `OCCN(CCO)c1ccc2c(c1)Cc1cc(Br)ccc1-2` in this test.
# output inactive

# input Look up the recorded call for CNC1C(CO)OC(n2cnc3c(N)ncnc32)C1O (stereo not given) in this test.
# output inactive

# input Look up the recorded call for `Cc1ccc(/C=N/S(=O)(=O)Cc2ccccc2)cc1` in this test.
# output inactive

# input Look up the recorded call for `O=c1nc2oc(-c3ccccc3)cn2c(=O)n1-c1ncc(-c2ccccc2)o1` in this test.
# output inactive

# input Look up the recorded call for `O=C(CO)c1ccc([N+](=O)[O-])cc1` in this test.
# output inactive

# input Look up the recorded call for CCC(C)C(NS(=O)(=O)Cc1ccccc1)C(=O)O (stereo not given) in this test.
# output inactive

# input Look up the recorded call for `O=[N+]([O-])c1cnc(/C=[N+](\[O-])C2CCCCC2)n1CCO` in this test.
# output inactive

# input Look up the recorded call for `CCOC(=O)c1cc(C)nc2c1c(=O)n(-c1ccccc1)c(=O)n2CCCCN1CCN(c2ccccc2)CC1` in this test.
# output inactive

# input Look up the recorded call for `COc1cc(O)c(Cc2ccccc2O)c(O)c1C(=O)CCc1ccccc1` in this test.
# output inactive

# input Look up the recorded call for COC(=O)C1CN(c2ccccc2)CCC1=O (stereo not given) in this test.
# output inactive

# input Look up the recorded call for `Cc1cc2oc3ccccc3c(=O)c2c(C)c1Cl` in this test.
# output inactive

# input Look up the recorded call for O=C1c2ccccc2C(C2N=Nc3ccccc32)c2ccccc21 (stereo not given) in this test.
# output inactive

# input Look up the recorded call for `CC(C)(C)c1ccc(OS(=O)(=O)c2ccccc2)c(Cl)c1` in this test.
# output inactive

# input Look up the recorded call for `C[N+]1(C)CCC[N+](C)(C)CC1` in this test.
# output inactive

# input Look up the recorded call for `CC(F)(F)C(F)(F)C(=O)CC(=O)C(F)(F)F.CC(F)(F)C(F)(F)C(=O)CC(=O)C(F)(F)F.[Cu]` in this test.
# output inactive

# input Look up the recorded call for `CN1C(=O)Cc2ccccc21` in this test.
# output inactive

# input Look up the recorded call for `O=C1COc2cc(O)cc(O)c21` in this test.
# output inactive

# input Look up the recorded call for `NC(=O)C1=Cc2cccn2-c2ccccc2S1` in this test.
# output inactive

# input Look up the recorded call for `Cn1c(SCc2ccc(F)cc2)nnc1C12CC3CC(CC(C3)C1)C2` in this test.
# output inactive

# input Look up the recorded call for CC(=O)C1=C2CCC3C(CCC4CC(O)CCC43C)C2CC1 (stereo not given) in this test.
# output inactive

# input Look up the recorded call for `Nc1nc(N)c2ccccc2n1` in this test.
# output inactive

# input Look up the recorded call for `Cc1ccc2c(c1)c1ccc3c(c1n2C)C(=O)C=CC3=O` in this test.
# output active

# input Look up the recorded call for `CC1=CC(=O)N2[C@H](OC[C@@H]2C(C)C)O1` in this test.
# output inactive

# input Look up the recorded call for `CCCN=C(C(C)=O)N(C)C` in this test.
# output inactive

# input Look up the recorded call for `O=Cc1c2cnc(c1O)CSCCCCSC2` in this test.
# output inactive

# input Look up the recorded call for `CCO/C=C\C(OCC)OCC` in this test.
# output inactive

# input Look up the recorded call for `C[n+]1ccc(/C=C/c2ccc(O)c(O)c2)c2ccccc21` in this test.
# output inactive

# input Look up the recorded call for `CCOc1c(OC)cc(-c2nnc(SCCN(CC)CC)o2)cc1OC` in this test.
# output inactive

# input Look up the recorded call for `FC(F)(F)C1(C(F)(F)F)OS2(OC(C(F)(F)F)(C(F)(F)F)c3ccccc32)c2ccccc21` in this test.
# output inactive

# input Look up the recorded call for `Cc1c([O-])[n+]2cccc3ccn(c1=O)c32` in this test.
# output inactive

# input Look up the recorded call for `c1ccc(-c2ccc3c(c2)NCCN3)cc1` in this test.
# output inactive

# input Look up the recorded call for COc1ccccc1C1C2=C(COC2=O)Oc2cc3c(cc21)OCO3 (stereo not given) in this test.
# output inactive

----------
Assay: NCI Yeast Anticancer Drug Screen. Data for the mlh1 rad18 strain (AID 175)
Conditions: S. cerevisiae mlh1 rad18 strain growth inhibition; at 50.0 µM; stronger effect = higher value
This is part of a sample that, as a whole, favours compounds with a hit. Of some 79,000 tested, about 15% had one in any assay. *1 amine or outer side, *2 acyl side, *3 side chain or, on linkers, in order; H or OH if unused. Where a SMILES comes first, the peptide text is derived from it. Bridges are numbered along the chain shown (N, C = ends). Roman numbers before positions name the chains, in order. [ ]: non-standard residue; d: D form. Actinocin(1to9) = Cc1c2oc3c(C)ccc(C(=O)[*:2])c3nc-2c(C(=O)[*:1])c(N)c1=O; NMeV = CN[CH](C(=O)O)C(C)C; Aze = O=C(O)[CH]1CCN1; Sar = CNCC(=O)O
Kindly state growth inhibition for each of the entries shown.
Your answer should be a plain number; it is taken to be in %.

Reported growth inhibition of `CCOC(=O)C1=C(C(=O)c2ccc(OC)cc2)C(c2ccc(OC)c(OC)c2)C(C(=O)c2ccc(OC)cc2)=C(C(=O)OCC)N1` : -18.8

Reported growth inhibition of `Nc1ccc2c(c1)Cc1cccc(N)c1-2` : 1.9

Reported growth inhibition of `O=S(=O)(c1ccccc1)c1ccc(O)cc1` : -15.7

Reported growth inhibition of `O=c1[nH]nc(SCc2ccccc2)c(=O)n1C(c1ccccc1)c1ccccc1` : 5.3

Reported growth inhibition of `C/C(=N\N=P(c1ccccc1)(c1ccccc1)c1ccccc1)C(C)(C)C` : 31.7

Reported growth inhibition of CCNC(=O)OCCN1C(=O)C2C3CCC(O3)C2C1=O (centres undefined) : 12.8

Reported growth inhibition of `BrC12CC3CC(CC(C3)C1)C2` : 12.8

Reported growth inhibition of `CCOc1ccnc2c(OC)c(C)c3nc4ccccc4nc3c12` : 91

Reported growth inhibition of `COC(=O)N/N=C/c1ccc(NC(C)=O)cc1` : -5

Reported growth inhibition of `CC(=O)Nc1c(CCCCc2ccccc2)[nH]c(=O)[nH]c1=O` : -0.95

Reported growth inhibition of `CC(=O)NC1=N/C(=C\c2ccc(Cl)cc2)C(=O)N1/C=C1\C(=O)Oc2ccccc2C1=O` : 41.9

Reported growth inhibition of CC(=O)OC1CCCN(C)C1 (centres undefined) : -7.8

Reported growth inhibition of N#CCCN(CCC#N)c1ccc(/C=C2\CC(O)(c3ccccc3)N(c3ccc(Cl)cc3)C2=O)cc1 (centres undefined) : -22.4

Reported growth inhibition of `O=[N+]([O-])c1cc(F)cc(I)c1` : -5

Reported growth inhibition of `COc1ccc(NC(=O)CSc2nnc(Cc3ccccc3)o2)cc1` : -57.6

Reported growth inhibition of O=C(OC(CN1CCCCC1)CN1CCCc2ccccc21)C(O)C(O)C(O)(CO)C(=O)OC(CN1CCCCC1)CN1CCCc2ccccc21 (centres undefined) : 41.1

Reported growth inhibition of `C=CCNC(=O)C(=O)NCC=C` : 2.1

Reported growth inhibition of `CCN(CC)C(=O)CCC1CCCCC1` : -23.5

Reported growth inhibition of `N#Cc1nc(/C=C/c2nc(C#N)c(N)o2)oc1N` : -0.95

Reported growth inhibition of `Cc1c2ccccc2nc(CSCCO)[n+]1[O-]` : -16.2

Reported growth inhibition of `CC(=O)Nc1ccc(-c2nnc(SCC(=O)Nc3ccccc3)o2)cc1` : -8.55

Reported growth inhibition of `Oc1ccc(Cl)cc1C=Nc1cnc2ccccc2c1` : 17.4

Reported growth inhibition of CCOC(=O)CC(C#N)C(C)C(=O)OCC (centres undefined) : -0.35

Reported growth inhibition of `CCCCCCCCNC(=O)CBr` : 6.15

Reported growth inhibition of `C/C(CCc1cnc2ccccc2c1)=N/NC(N)=O` : 95.6

Reported growth inhibition of `Nc1cccc(C(=O)Nc2ccc3c(O)cc(S(=O)(=O)O)cc3c2)c1` : 7.05

Reported growth inhibition of Cc1cn(C2CC(O)C(CO)O2)c(=O)nc1NC1CC1 (centres undefined) : 3.15

Reported growth inhibition of OCC(OC/C=C/CCl)c1ccc(Cl)cc1 (centres undefined) : -15.9

Reported growth inhibition of OC1COCCC(O)(CNCc2ccccc2)C1O (centres undefined) : -9.1

Reported growth inhibition of CC(=O)NC(C=O)OCC=O (centres undefined) : -46.9

Reported growth inhibition of `O=C(Cc1ccccc1)NN1C(=O)/C(=C\c2cccc([N+](=O)[O-])c2)SC1=Nc1ccccc1` : 0.85

Reported growth inhibition of `Cc1cn(CCCCCCCCCCCCOc2c3occc3cc3ccc(=O)oc23)c(=O)[nH]c1=O` : 19.6

Reported growth inhibition of `CCCCCCCCCCn1cnc2c(=O)[nH]c(N)nc21` : -4.85

Reported growth inhibition of Cc1c2oc3c(C)ccc(C(=O)NC4C(=O)NC(C(C)C)C(=O)N5CCCC5C(=O)N(C)CC(=O)N(C)C(C(C)C)C(=O)OC4C)c3nc-2c(C(=O)NC2C(=O)NC(C(C)C)C(=O)N3CCC3C(=O)N(C)CC(=O)N(C)C(C(C)C)C(=O)OC2C)c(N)c1=O (centres undefined) (I: TV[Aze][Sar][NMeV] / II: TVP[Sar][NMeV]; ester I:1-I:C, II:1-II:C; linker I:N-II:N via Actinocin(1to9); configuration not given here) : 90

Reported growth inhibition of COc1ccc(C(c2cc3c(cc2O)OCO3)n2ccnc2)cc1 (centres undefined) : 4.9

Reported growth inhibition of CCCOC1NC(=O)Oc2ccccc21 (centres undefined) : 13.8

Reported growth inhibition of N#CC(OC(=O)c1ccccc1)C(OC(=O)c1ccccc1)C(COC(=O)c1ccccc1)OC(=O)c1ccccc1 (centres undefined) : 26.6

Reported growth inhibition of `COc1ccc(C)cc1S(=O)(=O)c1c(Cl)cccc1[N+](=O)[O-]` : -36.8

Reported growth inhibition of `CCc1cnccc1C` : -9.75

Reported growth inhibition of `CC(C)Cc1cn(O)c2nc(=N)nc(N)c-2n1` : 4

Reported growth inhibition of `O=c1oc(-c2ccccc2)c(-c2ccccc2)o1` : 46.4

Reported growth inhibition of `CCN(CC)Cc1cc(Nc2nc(/C=C/c3ccccc3)nc3ccccc23)ccc1O` : -14.6

Reported growth inhibition of `COc1ccc(/C=C/c2onc3c(=O)n(C)nc(-c4ccccc4)c23)cc1` : -26.2

Reported growth inhibition of Clc1ccccc1C1Nc2ccccc2S1 (centres undefined) : 38.2
